# target desc: Endothelial lipase (EL) (Homo sapiens (Human))
# Sequence (Q9Y5X9 21-500): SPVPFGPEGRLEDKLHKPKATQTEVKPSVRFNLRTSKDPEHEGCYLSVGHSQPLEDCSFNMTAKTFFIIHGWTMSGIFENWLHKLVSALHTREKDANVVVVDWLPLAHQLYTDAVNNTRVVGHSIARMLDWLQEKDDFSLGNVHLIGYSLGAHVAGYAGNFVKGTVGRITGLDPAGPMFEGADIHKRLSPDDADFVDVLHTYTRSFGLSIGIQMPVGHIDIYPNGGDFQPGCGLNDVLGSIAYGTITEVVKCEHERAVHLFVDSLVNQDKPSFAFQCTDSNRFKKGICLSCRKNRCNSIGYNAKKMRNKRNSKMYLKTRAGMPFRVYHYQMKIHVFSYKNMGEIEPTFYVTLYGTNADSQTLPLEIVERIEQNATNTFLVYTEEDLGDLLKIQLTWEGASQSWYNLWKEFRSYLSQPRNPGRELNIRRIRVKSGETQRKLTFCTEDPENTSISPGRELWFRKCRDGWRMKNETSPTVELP
# assay explanation: Endothelial lipase (EL) enzymatic assay with fluorescent substrate A10070 in DMPG vesicles
# Format: biochemical
IC50: recorded values

[
  {
    "compound": "COCCS(=O)(=O)C(C(=O)NCC(=O)NC1CC1)c1nc2cc(F)c(-c3ccc4c(c3)CCN4C(C)=O)cc2s1 (centres unmarked) [Example 416]",
    "IC50": "11 nM"
  },
  {
    "compound": "Cc1cc(-c2cc3sc(C(C(=O)NCC(=O)NC4CC4)S(=O)(=O)C(C)C)nc3cc2F)cnn1 (centres unmarked) [Example 240]",
    "IC50": "192 nM"
  },
  {
    "compound": "CC(C)S(=O)(=O)C(C(=O)NCC(=O)NC1CC1)c1nc2cc(F)c(-c3ccc(NC(=O)OCC4CC4)cc3)cc2s1 (centres unmarked) [Example 528]",
    "IC50": "1 nM"
  },
  {
    "compound": "COCCS(=O)(=O)C(C(=O)NCC(=O)NCCOC(C)C)c1nc2cc(-c3ccc4c(c3)CNC4=O)c(F)cc2s1 (centres unmarked) [Example 354]",
    "IC50": "24 nM"
  },
  {
    "compound": "COCCNC(=O)c1cccc(-c2ccc3sc(C(C(=O)NCC(=O)NC4CC4)S(=O)(=O)CCOC)nc3c2)c1 (centres unmarked) [Example 400]",
    "IC50": "9 nM"
  },
  {
    "compound": "CN(C)S(=O)(=O)C(C(=O)NCC(=O)NC1CC1)c1nc2c(F)cc(-c3ccc(F)nc3)cc2s1 (centres unmarked) [Example 489]",
    "IC50": "165 nM"
  },
  {
    "compound": "COc1ccc(-c2cc3nc(C(C(=O)NCC(=O)NC4CC4)S(C)(=O)=O)sc3cc2F)cn1 (centres unmarked) [Example 366]",
    "IC50": "30 nM"
  },
  {
    "compound": "CS(=O)(=O)C(C(=O)NCC(=O)NC1CC1)c1nc2cc(F)c(-c3ccc(NC(=O)OCc4ccccc4)nc3)cc2s1 (centres unmarked) [Example 552]",
    "IC50": "1 nM"
  }
]
